The reported measurements were obtained from PubChem BioAssay (NCI).

PROCEDURE SUMMARY: NCI Yeast Anticancer Drug Screen. Data for the sgs1 mgt1 strain (AID 161);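 note: 0% = growth of cultures given vehicle only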
COND: S. cerevisiae sgs1 mgt1 strain, at 50.0 µM, active compounds read high
The panel holds about 79,000 compounds, 15% with a hit somewhere; the sample as a whole holds those more often.
TEST READOUT: growth inhibition (%)
Write the number in % without appending the unit.

State the recorded growth inhibition for this entry: OC(c1ccccc1)(c1ccccc1)c1ccc[cH-]1.OC(c1ccccc1)(c1ccccc1)c1ccc[cH-]1.[Fe+2]
-2.3

State the recorded growth inhibition for this entry: S=C(NCc1ccccc1)N/N=C/c1ccccn1
49.8

State the recorded growth inhibition for this entry: CC(=O)c1c(O)c2ccc(Cl)cc2[nH]c1=O
83.2

State the recorded growth inhibition for this entry: N=C(N)c1ccc(OCCCCOc2ccc(N)cc2Cl)cc1
44.4

State the recorded growth inhibition for this entry: Cc1cc(/C=N/Nc2ccc3cccc(O)c3n2)c(O)c2ncccc12
99.1

State the recorded growth inhibition for this entry: CCCCCCCCN/N=C(/C)CCCCCO
-12.7

State the recorded growth inhibition for this entry: O=c1[nH]c(CN2CCCCC2)nn1-c1ccccc1
9.75

State the recorded growth inhibition for this entry: CC1(C)OC2OC(/C=C/[N+](=O)[O-])C3OC(C)(C)OC3C2O1 (stereo not drawn)
13.2

State the recorded growth inhibition for this entry: CC(O)C(O)C(O)C(O)C(O)C(=O)O (stereo not drawn)
-9.1

State the recorded growth inhibition for this entry: COC1=CC(=O)c2ncc(Cl)cc2C1=O
93.2

State the recorded growth inhibition for this entry: CC1=C(C(=O)Nc2ccccc2Cl)C(c2cccc([N+](=O)[O-])c2)C(C(=O)Nc2ccccc2Cl)=C(C)N1
20.4

State the recorded growth inhibition for this entry: CCC[N+]1=C(/C=C/c2cc(C)c3cccnc3c2O)C(C)(C)c2ccccc21
86.5

State the recorded growth inhibition for this entry: Cc1nc2c([N+](=O)[O-])c(N3CCCCC3)c([N+](=O)[O-])cc2[nH]1
99.1

State the recorded growth inhibition for this entry: S=C1NC2=C(COC/C2=C\c2ccccc2Cl)C(c2ccccc2Cl)N1 (stereo not drawn)
79.2

State the recorded growth inhibition for this entry: O=C1C(=O)c2ccccc2C(O)=C1Sc1ccccc1
95

State the recorded growth inhibition for this entry: CS(=O)(=O)C(c1nc2nnc(NC(=O)Nc3ccc(Cl)cc3)n2[nH]c1=O)c1nc2nnc(NC(=O)Nc3ccc(Cl)cc3)n2[nH]c1=O
24.6

State the recorded growth inhibition for this entry: Nc1nc(Cl)cc(NCC2(CO)CC(CCCc3ccccc3)C2)n1 (stereo not drawn)
-26.5

State the recorded growth inhibition for this entry: c1ccc(N=c2sc3ccccc3sc2=Nc2ccccc2)cc1
21.8

State the recorded growth inhibition for this entry: Oc1ccc(O)c2c1CC=C(Cl)C2
33

State the recorded growth inhibition for this entry: Nc1ccc2[nH]c3ccccc3c2c1
40.2

State the recorded growth inhibition for this entry: N#Cc1c(-c2ccc(Cl)cc2)c(-c2ccc(Cl)cc2)nn(CCOC(=O)CN)c1=O
45.6

State the recorded growth inhibition for this entry: COC(=O)C(=O)C(C(=O)C(=O)Nc1ccc(C)cc1C)c1nc2ccccc2[nH]c1=O (stereo not drawn)
39.2

State the recorded growth inhibition for this entry: Cc1cccc(NC(=O)Oc2ccc(Cl)c3cccnc23)c1
91.8

State the recorded growth inhibition for this entry: COc1ccc(C2=CCC3C4CC=C5CC(O)CCC5(C)C4CCC23C)s1 (stereo not drawn)
59.6

State the recorded growth inhibition for this entry: COC(=O)N1C2C=CC(=O)C(C=C2)N1C(=O)OC (stereo not drawn)
47

State the recorded growth inhibition for this entry: CC[N+]1(C)CCC(O)(c2ccc(Cl)c(Cl)c2)C(C(=O)c2ccc(Cl)c(Cl)c2)C1 (stereo not drawn)
99

State the recorded growth inhibition for this entry: O=C(C1=Cc2ccccc2OC1)N1CCN(c2cccc(Cl)c2)CC1
72.2

State the recorded growth inhibition for this entry: O=C(O)CSc1ccc(N=C=S)cc1
-2.75

State the recorded growth inhibition for this entry: COc1ccc2nc3cc(Cl)ccc3c(Nc3ccc(S(N)(=O)=O)cc3)c2c1
-6.05

State the recorded growth inhibition for this entry: CC(C)C(O)C(C)C
4.95

State the recorded growth inhibition for this entry: CC(C)c1cc(C(=O)[O-])c(O)c(C(C)C)c1.CC(C)c1cc(C(=O)[O-])c(O)c(C(C)C)c1.CC(C)c1cc(C(=O)[O-])c(O)c(C(C)C)c1.CC(C)c1cc(C(=O)[O-])c(O)c(C(C)C)c1.CC(C)c1cc(C(=O)[O-])c(O)c(C(C)C)c1.CC(C)c1cc(C(=O)[O-])c(O)c(C(C)C)c1.[Cu+2].[Mn+2].[Mn+2]
44.5

State the recorded growth inhibition for this entry: CC1=C(C)CC(C#N)(C#N)C(C#N)(C#N)C1
82.2

State the recorded growth inhibition for this entry: O=C(/C=C\c1ccccc1)/C=C/c1ccccc1
28.2

State the recorded growth inhibition for this entry: CN(C)C1CCC2C3CCC4=CC(=O)CCC4(C)C3CCC21C (stereo not drawn)
69.5

State the recorded growth inhibition for this entry: C=CC(=O)NC(C)C
19.4

State the recorded growth inhibition for this entry: CCCCCCCCC(N)CCCCCCCC
46

State the recorded growth inhibition for this entry: O=C(CC(=O)c1ccncc1)c1ccccc1
97

State the recorded growth inhibition for this entry: CSc1nc(C)c(C(=O)CCN2CCOCC2)s1
99.6

State the recorded growth inhibition for this entry: CC(=O)N(C)c1cc(NCc2ccccc2)ccc1OCc1ccccc1
97.7

State the recorded growth inhibition for this entry: Cc1ccc(C2CC(c3cccc([N+](=O)[O-])c3)=Nc3ccccc3S2)cc1 (stereo not drawn)
57.3

State the recorded growth inhibition for this entry: O=C1/C(=C/c2ccc(Cl)c(Cl)c2)CN(C(=O)CCN2CCOCC2)C/C1=C\c1ccc(Cl)c(Cl)c1
85.2

State the recorded growth inhibition for this entry: c1nc(N2CCOCC2)c2[nH]cnc2n1
12.2

State the recorded growth inhibition for this entry: CO[C@H]1CC[C@@]2(C)C(=CC[C@H]3[C@@H]4C[C@H](OC(C)=O)C[C@@]4(C)CC[C@@H]32)C1
38.3
